Taken from ChEMBL document CHEMBL1143126.

experiment: Antiproliferative activity against human C33 cells after 72 hrs by MTT assay; assay type: functional, cell-based; details: C33, 72 h
pIC50: −log10 of the molar value.
Parameter: pIC50

Use the examples below as a reference point.
Smiles record	pIC50
CSc1nc2c(Nc3cccc(NC(C)=O)c3)c3ccccc3nc2s1	< 3.70
CSc1nc2c(Nc3cccc([N+](=O)[O-])c3)c3ccccc3nc2s1	< 3.70

Moving on to another compound below.
Ask | Dear colleague, I am looking for the recorded pIC50 of the following compound: CSc1nc2c(Nc3ccc(C#N)cc3)c3ccccc3nc2s1
Reply | < 3.70

###

system: DNA; assay: Displacement of ethidium bromide from calf thymus DNA; assay type: nucleic-acid assay; conditions: Bos taurus
A collection of compounds and their measured Q50
Unit µM implied. Number only.

Use the examples below as a reference point.
Smiles record	Parameter	Scale unit	Quantitative result
CNc1cccc(Nc2c3ccccc3nc3sc(SC)nc23)c1	Q50	µM	4.18
CSc1nc2c(Nc3cccc(C#N)c3)c3ccccc3nc2s1	Q50	µM	11.5

Moving on to another compound below.
Ask | Form: Entry = CSc1nc2c(Nc3cccc(O)c3)c3ccccc3nc2s1 | System = DNA | Q50 = ____
Reply | 7.64
